Record form. Attribute: growth inhibition. Fill in for each entry.
test: NCI Yeast Anticancer Drug Screen. Data for the sgs1 mgt1 strain (AID 161);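 note: 0% = growth of cultures given vehicle only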; details: S. cerevisiae sgs1 mgt1 strain, at 5.0 µM (retest, dose inferred, filed as 0.5), stronger effect = higher value
This is part of a sample that, as a whole, favours compounds with a hit. Of some 79,000 tested, about 15% had one in any assay.
One number for each entry, in %.

Known growth inhibition results, listed for orientation:
- molecule: "CC1CC(C)CC(C(O)(C(=O)O)C2CC(C)CC(C)C2)C1 (configuration not stated)"
  growth inhibition [%]: 10
- molecule: "O=C(CSc1nnc(Cc2ccccc2)o1)Nc1ccc(Cl)cc1[N+](=O)[O-]"
  growth inhibition [%]: 4
- molecule: "CCCCCCCCS(=O)(=O)Nc1ccccc1"
  growth inhibition [%]: 6
- molecule: "COC(=O)c1ccc(CCc2cc(O)ccc2O)cc1"
  growth inhibition [%]: 70
- molecule: "Cc1cc(S(=O)(=O)c2ccc(Cl)cc2)nc(S(=O)(=O)c2ccc(Cl)cc2)c1C#N"
  growth inhibition [%]: 99

Take each entry in turn and give its growth inhibition.
1. CCO/C=C1\N=C(C(O)(c2ccc(Cl)cc2)c2ccc(Cl)cc2)OC1=O
2. CCOC(=O)c1[nH]cc(C)c1-c1ccc2c(-c3ccccc3)nc3ccccc3n12

Response line:
1. -2
2. 3

###

experiment: NCI Yeast Anticancer Drug Screen. Data for the cln2 rad14 strain (AID 165);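 note: 0% = growth equal to vehicle treated cultures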; conditions: S. cerevisiae cln2 rad14 strain, at 50.0 µM (retest, dose inferred, filed as 5.0), stronger effect = higher value
About 79,000 compounds went through this panel and 15% of them were active in at least one assay; those are over-represented in the sample as a whole.
Would you mind telling me the reported growth inhibition of each entry?
One number for each entry, in %.

- compound: "CN(C)CCCC(=O)OCC[N+](C)(C)C"
  observed: -3
- compound: "CCC(=O)C(CC)(c1ccc(OC(C)=O)cc1)c1ccc(OC(C)=O)cc1"
  observed: 33
- compound: "COc1cc(CNC(=O)CCCCCCCCCCSC#N)ccc1O"
  observed: 76
- compound: "NC(=O)c1ccccc1C(=O)O"
  observed: 1
- compound: "COc1cccc2c1C1c3ccccc3Sc3cccc(c31)O2 (stereo unspecified)"
  observed: -21

Provide growth inhibition values for the following items, in order.
1. O=c1oc2ccccc2c(O)c1C1=N/C(=N/N=C/c2ccc(Cl)cc2)SC1
2. CCN(CC)CCNc1ccc(C)c2oc3ccc(O)cc3c(=O)c12

Response line:
1: 95; 2: 22

###

assay: NCI Yeast Anticancer Drug Screen. Data for the bub3 strain (AID 167); details: S. cerevisiae bub3 mutant strain, at 5.0 µM (retest, dose inferred, filed as 0.5), stronger effect = higher value
Compounds without any hit were thinned out: in the full panel of roughly 79,000, 15% have a hit.
measured.attribute: growth inhibition (%)
Answers are plain numbers, in %.

- molecule: "Cc1c(C(C)(C)C)cc(C(C)(C)C)c(O)c1CN(C)Cc1c(C)c(C(C)(C)C)cc(C(C)(C)C)c1O"
  measured.attribute: "growth inhibition"
  observed: -3
- molecule: "Cc1cc(NC(=S)SCc2ccc(Cl)cc2)ccc1Br"
  measured.attribute: "growth inhibition"
  observed: 55

Consider the following items and state reported growth inhibition for each.
1. O=C1/C(=C/c2ccccc2Cl)COc2ccccc21
2. O=C(c1ccccc1)C1Cc2ccccc2C1=O (stereo not drawn)
3. CCCCC#CCCOC(=O)C#CCCCC

Response line:
1: 32; 2: 35; 3: 3

// batch mode: one growth inhibition value per listed entry
1. CN(C)CCOc1cc2c(c3ccccc13)-c1ccccc1C2=O
2. NC1NCCC(=O)N1CCc1c[nH]c2ccccc12 (stereo not drawn)
3. O=S(=O)(Nc1ccc(NS(=O)(=O)c2ccccc2)c(N2N=N2)c1)c1ccccc1
4. CCc1cccc(C)c1NC(=O)C1=C(C)NC(C)=C(C(=O)Nc2c(C)cccc2CC)C1c1ccc2c(c1)OCO2
5. COc1ccc2cc3c4cc(OC)c(OC)cc4ccn3c2c1
6. COc1ccc(/C=N/n2c(C)nc3c(sc(=S)n3-c3ccccc3)c2=O)cc1
7. CC(CN(C)C)C(=O)c1cn(C)c2ccccc12 (stereo not drawn)

Response line:
[6, -26, -2, 26, -1, 12, -2]

Consider the following items and state reported growth inhibition for each.
1. CC1(c2ccc(Cl)cc2)OC(=O)C(=Cc2ccc([N+](=O)[O-])s2)C(=O)O1 (stereo not drawn)
2. CO/N=C/c1cc(NC(=S)c2ccoc2C)ccc1Cl
3. CCCN1CN(C(C(=O)N[C@@H]2C(=O)N3C(C(=O)O)=C(C)CSC23)c2ccccc2)CSC1=S (stereo partly drawn)

Response line:
[45, 9, -10]

Please give growth inhibition for each item listed below.
1. O=C1NC(CSSCC2NC(=O)N(c3ccccc3)C2=O)C(=O)N1c1ccccc1 (stereo not drawn)
2. Oc1ccc(-c2nnc(-c3ccc(Cl)cc3Cl)o2)cc1
3. C=C1C(=O)O[C@H]2C3C(=C(C)CC[C@@H]12)C(=O)[C@@H]1OC31C (stereo partly drawn)
4. O/N=C1\c2ccccc2-c2ccc(Cl)cc21
5. COc1ccc2c(c1)CCn1c(C)c(COC(=O)NC(C)C)c(COC(=O)NC(C)C)c1-2
6. Clc1ccc(CN2COc3c(ccc4cccnc34)C2)cc1
7. Cc1ccc(S(=O)(=O)NNc2nc(N(C)C)nc(N(C)C)n2)cc1
8. CCCCCCCCCCCCOP(=O)(N1CC1(C)C)N1CC1(C)C (stereo not drawn)

Response line:
1. 4
2. 17
3. 21
4. -4
5. 15
6. -4
7. -1
8. 24
